- Test system: Jurkat T cells
- Format: cell-based, human
- Condition label: IL-2 production level in treated group compared to control group; 48 hours treatment, then anti-CD3/anti-CD28 12 hours
Under this convention, 1 denotes Relative changed percentage (%) strictly below -10% and 0 denotes Relative changed percentage (%) at or above -10%.

Answered cases to consult:
Molecule: O=C([O-])CC(O)(CC(=O)[O-])C(=O)[O-].O=C([O-])CC(O)(CC(=O)[O-])C(=O)[O-].[Zn+2].[Zn+2].[Zn+2] [Zinc Citrate]
Class: 0

Molecule: C/C=C/C=C/C(=O)[O-].[K+] [Potassium sorbate]
Class: 0

Molecule: O=C(O)CC(O)(CC(=O)O)C(=O)O [Citric Acid]
Class: 1

Molecule: CC(C)=O [ACETONE]
Class: 1

Molecule: Nc1nc2nc[nH]c2c(=O)[nH]1 [GUANINE]
Class: 0

Identify whether the molecule N[C@@H](CC(=O)[O-])C(=O)[O-].[Mg+2] [Magnesium Aspartate] records Relative changed percentage (%) below -10%.
0

Record N[C@@H](CSSC[C@H](N)C(=O)O)C(=O)O [L-Cystine] : is its Relative changed percentage (%) strictly below -10%?
1

A record lists N[C@@H](CO)C(=O)O [L-Serine] . Is its Relative changed percentage (%) below -10%?
1

Would you kindly verify if Relative changed percentage (%) of N=C(N)NCCC[C@H](N)C(=O)O [L-Arginine] is strictly less than -10%?
0

Is Relative changed percentage (%) of CSCC[C@H](N)C(=O)O [L-Methionine] strictly below -10%?
1

Here's an entry: O=[Se](O)O [sodium selenite] . Is its Relative changed percentage (%) below -10%?
0
